Hey, just so you know, these numbers are from patent US20210380703A1.

TEST SYSTEM: T1, mouse ACVR2A (mouse, UniProt P27038 20-135, limits assumed); note: test concentration or dose not given here
T1 construct: coated antigen of the initial ELISA
T1 sequence (P27038 20-135 limits assumed): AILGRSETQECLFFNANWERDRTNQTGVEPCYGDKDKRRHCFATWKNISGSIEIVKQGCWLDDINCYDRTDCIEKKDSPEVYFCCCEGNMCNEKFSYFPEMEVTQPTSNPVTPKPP
PROCEDURE DETAILS: ELISA
Measured optical density by item
Answer in OD, number only, no unit symbol.

| BINDER | MEASURED RESULT |
| --- | --- |
| 373_H07 (antibody, V domains shown, Group III) VH: EVQLLESGGGLVQPGGSLRLSCAASGFTFSSYSMNWVRQAPGKGLEWVAGINYNGGYTSYADSVKGRFTISRDNSKNTLYLQMNSLRAEDTAVYYCARGANWHDTHLDYWGQGTLVTVSS VL: DIQMTQSPSSLSASVGDRVTITCRASQSIVTYLNWYQQKPGKAPKLLIYAASSLQSGVPSRFSGSGSGTDFTLTISSLQPEDFATYYCQQSYDSPLTFGGGTKVEIK | 3.27 |
| 375_E05 (antibody, V domains shown, Group III) VH: EVQLLESGGGLVQPGGSLRLSCAASGFTFSSYSMNWVRQAPGKGLEWVAGINYNGGYTSYADSVKGRFTISRDNSKNTLYLQMNSLRAEDTAVYYCARGANWHDTALDYWGQGTLVTVSS VL: DIQMTQSPSSLSASVGDRVTITCRASQSILSYLNWYQQKPGKAPKLVIYAATSLASGVPSRFSGSGSGTDFTLTISSLQPEDFATYYCQQSYSSPLTFGGGTKVEIK | 3.71 |
| 374_E12 (antibody, V domains shown, Group III) VH: EVQLLESGGGLVQPGGSLRLSCAASGFTFSSYSMNWVRQAPGKGLEWVSGINYNGGYKSYADSVKGRFTISRDNSKNTLYLQMNSLRAEDTAVYYCARGANWHDTALDYWGQGTLVTVSS VL: DIQMTQSPSSLSASVGDRVTITCRASQSILSYLNWYQQKPGKAPKLVIYAATSRASGVPSRFSGSGSGTDFTLTISSLQPEDFATYYCQQSYDNPLTFGGGTKVEIK | 3.28 |
| 374_D07 (antibody, V domains shown, Group III) VH: EVQLLESGGGLVQPGGSLRLSCAASGFTFDSYSMNWVRQAPGKGLEWVSGINYNSGYKSYADSVKGRFTISRDNSKNTLYLQMNSLRAEDTAVYYCARGANWHDTALDYWGQGTLVTVSS VL: DIQMTQSPSSLSASVGDRVTITCRASQSIVSYLNWYQQKPGKAPKLVIYAATSLASGVPSRFSGSGSGTDFTLTISSLQPEDFATYYCQQSYNSPLTFGGGTKVEIK | 3.68 |

Shift focus to the following entry.
Exercise: Let me know recorded optical density for 368_A03 (antibody, V domains shown, Group III) VH: EVQLLESGGGLVQPGGSLRLSCAASGFTFSSYSMNWVRQAPGKGLEWVSGINYNGGYTGYADSVKGRFTISRDNSKNTLYLQMNSLRAEDTAVYYCARGANWHDTHLDYWGQGTLVTVSS VL: DIQMTQSPSSLSASVGDRVTITCRASQSIISYLNWYQQKPGKAPKLLIYAVTSRASGVPSRFSGSGSGTDFTLTISSLQPEDFATYYCQQSYENPLTFGGGTKVEIK , thanks.
Key: 2.83
